test system: 653999-131-R-J2-PDC complex spheroids, growth inhibition; experiment: Anticancer human tumor 653999-131-R-J2-PDC patient-derived lung adenocarcinoma cell line growth inhibition [RAS]; conditions: second compound 0.1 µM; first compound 0.0316 µM; active compounds read low;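 further: spheroids exposed to the agents for seven days before the readout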
Field: viability, T/C. Provide a value for each of the compounds that follow.
Value expressed in %; do not type the unit.

Q: State the recorded viability, T/C for this entry: CC(C)NCC(C(=O)N1CCN(c2ncnc3c2C(C)CC3O)CC1)c1ccc(Cl)cc1 (stereo not given) + C#Cc1c(F)ccc2cc(O)cc(-c3ncc4c(N5CC6CCC(C5)N6)nc(OCC56CCCN5CC(F)C6)nc4c3F)c12
A: 97.6

Q: Likewise for CC(Nc1ccc2c(c1)OCCn1cc(N3C(=O)OCC3C(F)F)nc1-2)C(N)=O (stereo not given) + C=CC(=O)N1CCN(c2nc(OCC3CCCN3C)nc3c(F)c(-c4nc(N)cc(C)c4C(F)(F)F)c(Cl)cc23)C(C)C1 ?
A: 85.6

Q: Likewise for C=CC(=O)N1CCN(c2nc(OCC3CCCN3C)nc3c(F)c(-c4nc(N)cc(C)c4C(F)(F)F)c(Cl)cc23)C(C)C1 (stereo not given) + C#Cc1c(F)ccc2cc(O)cc(-c3ncc4c(N5CC6CCC(C5)N6)nc(OCC56CCCN5CC(F)C6)nc4c3F)c12 ?
A: 73.9

Q: Likewise for CC(Nc1ccc2c(c1)OCCn1cc(N3C(=O)OCC3C(F)F)nc1-2)C(N)=O (stereo not given) + C#Cc1c(F)ccc2cc(O)cc(-c3ncc4c(N5CC6CCC(C5)N6)nc(OCC56CCCN5CC(F)C6)nc4c3F)c12 ?
A: 77.2

Q: Likewise for CC(C)n1nc(-c2ccc3oc(N)nc3c2)c2c(N)ncnc21 + C=CC(=O)N1CCN(c2nc(OCC3CCCN3C)nc3c(F)c(-c4nc(N)cc(C)c4C(F)(F)F)c(Cl)cc23)C(C)C1 ?
A: 30.4

Q: Likewise for Cc1nc(N2CCC3(CC2)COC(C)C3N)c(CO)nc1Sc1ccnc(N)c1Cl (stereo not given) + C=CC(=O)N1CCN(c2nc(OCC3CCCN3C)nc3c(F)c(-c4nc(N)cc(C)c4C(F)(F)F)c(Cl)cc23)C(C)C1 ?
A: 103

Q: Likewise for C=CC(=O)Nc1cc(Nc2nccc(-c3cn(C)c4ccccc34)n2)c(OC)cc1N(C)CCN(C)C + C=CC(=O)N1CCN(c2nc(OCC3CCCN3C)nc3c(F)c(-c4nc(N)cc(C)c4C(F)(F)F)c(Cl)cc23)C(C)C1 ?
A: 89.5

Q: Likewise for O=C(c1ccc(F)c(F)c1Nc1ccc(I)cc1F)N1CC(O)([C@@H]2CCCCN2)C1 + C#Cc1c(F)ccc2cc(O)cc(-c3ncc4c(N5CC6CCC(C5)N6)nc(OCC56CCCN5CC(F)C6)nc4c3F)c12 ?
A: 63

Q: Likewise for Nc1ccn(C2OC(CO)C(O)C2(F)F)c(=O)n1 (stereo not given) + C#Cc1c(F)ccc2cc(O)cc(-c3ncc4c(N5CC6CCC(C5)N6)nc(OCC56CCCN5CC(F)C6)nc4c3F)c12 ?
A: 56.4

Q: Likewise for C=CC(=O)Nc1cc(Nc2nccc(-c3cn(C)c4ccccc34)n2)c(OC)cc1N(C)CCN(C)C + C#Cc1c(F)ccc2cc(O)cc(-c3ncc4c(N5CC6CCC(C5)N6)nc(OCC56CCCN5CC(F)C6)nc4c3F)c12 ?
A: 57.7

Each recorded value in this set is attributed to PubChem BioAssay AID2060886.
